Give DC50 for every item shown.
TESTED SYSTEM: UniProt:P03372
PROTOCOL: In-cell western blot analysis of ER for "B" compounds
Assay type: cell-based
MEASUREMENT SETUP: 16 hours, read-out: ICW DC50

[Q] Give DC50 for O=C1CCC(N2Cc3c(ccc4c3OCC43CCN(CC4COC5(CCN(c6ccc([C@@H]7c8ccc(O)cc8CC[C@@H]7c7ccccc7)cc6)CC5)O4)CC3)C2=O)C(=O)N1 (stereo partly drawn)
[A] 10 to 100 nM

[Q] Give DC50 for O=C1CCC(N2Cc3cc4c(cc3C2=O)OC[C@@H]2CN(CC3COC5(CCN(c6ccc([C@@H]7c8ccc(O)cc8CC[C@@H]7c7ccccc7)cc6)CC5)OC3)CCN42)C(=O)N1 (stereo partly drawn)
[A] < 10 nM

[Q] Give DC50 for O=C1CCC(N2Cc3cc4c(cc3C2=O)OC[C@@H]2C[C@H](NCC3CCN(c5ccc([C@@H]6c7ccc(O)cc7CC[C@@H]6c6ccccc6)cc5)CC3)CN42)C(=O)N1 (stereo partly drawn)
[A] > 100 nM

[Q] Give DC50 for O=C1CCC(Nc2ccc(C3CCN(CC4COC5(CN(c6ccc([C@@H]7c8ccc(O)cc8CC[C@@H]7c7ccccc7)cc6)C5)OC4)CC3)cc2)C(=O)N1 (stereo partly drawn)
[A] > 100 nM

[Q] Give DC50 for O=C1CC[C@H](N2Cc3cc4c(cc3C2=O)OC[C@H](CN2CCC3(CC2)CCN(c2ccc([C@@H]5c6ccc(O)cc6CC[C@@H]5c5ccccc5)cc2)CC3)O4)C(=O)N1
[A] > 100 nM

[Q] Give DC50 for O=C1CCC(N2Cc3cc4c(cc3C2=O)OC[C@@H]2CN(CC3COC5(CN(c6ccc([C@@H]7c8ccc(O)cc8CC[C@@H]7c7ccccc7)cc6)C5)OC3)CCN42)C(=O)N1 (stereo partly drawn)
[A] 10 to 100 nM

[Q] Give DC50 for O=C1CCC(N2Cc3c(ccc4c3OCC43CCN(CC4CCC5(CCN(c6ccc([C@@H]7c8ccc(O)cc8CC[C@@H]7c7ccccc7)cc6)CC5)O4)CC3)C2=O)C(=O)N1 (stereo partly drawn)
[A] > 100 nM

[Q] Give DC50 for O=C1CCC(N2Cc3c(ccc4c3OCC43CCN(C(=O)CN4CCC5(CC4)CN(c4ccc([C@@H]6c7ccc(O)cc7CC[C@@H]6c6ccccc6)cc4)C5)CC3)C2=O)C(=O)N1 (stereo partly drawn)
[A] < 10 nM

[Q] Give DC50 for O=C1CCC(N2Cc3cc4c(cc3C2=O)OC[C@@H]2CN(CC3COC5(C3)CN(c3ccc([C@@H]6c7ccc(O)cc7CC[C@@H]6c6ccccc6)cc3)C5)CCN42)C(=O)N1 (stereo partly drawn)
[A] 10 to 100 nM

[Q] Give DC50 for O=C1CCC(Nc2ccc(C3CCN(CC4COC5(CCN(c6ccc([C@@H]7c8ccc(O)cc8CC[C@@H]7c7ccccc7)cc6)CC5)OC4)CC3)cc2)C(=O)N1 (stereo partly drawn)
[A] > 100 nM

[Q] Give DC50 for O=C1CCC(N2Cc3c(ccc4c3OCC43CCN(CC(=O)N4CC5(CCN(c6ccc([C@@H]7c8ccc(O)cc8CC[C@@H]7c7ccccc7)cc6)C5)C4)CC3)C2=O)C(=O)N1 (stereo partly drawn)
[A] < 10 nM

[Q] Give DC50 for CCN(CC1CCN(c2ccc([C@@H]3c4ccc(O)cc4CC[C@@H]3c3ccccc3)cc2)CC1)[C@H]1C[C@H]2COc3cc4c(cc3N2C1)CN(C1CCC(=O)NC1=O)C4=O (stereo partly drawn)
[A] > 100 nM

====

Give DC50 for every item shown.
TESTED SYSTEM: ER in T47D cells (Homo sapiens (Human), UniProt P03372)
Sequence (P03372 whole entry): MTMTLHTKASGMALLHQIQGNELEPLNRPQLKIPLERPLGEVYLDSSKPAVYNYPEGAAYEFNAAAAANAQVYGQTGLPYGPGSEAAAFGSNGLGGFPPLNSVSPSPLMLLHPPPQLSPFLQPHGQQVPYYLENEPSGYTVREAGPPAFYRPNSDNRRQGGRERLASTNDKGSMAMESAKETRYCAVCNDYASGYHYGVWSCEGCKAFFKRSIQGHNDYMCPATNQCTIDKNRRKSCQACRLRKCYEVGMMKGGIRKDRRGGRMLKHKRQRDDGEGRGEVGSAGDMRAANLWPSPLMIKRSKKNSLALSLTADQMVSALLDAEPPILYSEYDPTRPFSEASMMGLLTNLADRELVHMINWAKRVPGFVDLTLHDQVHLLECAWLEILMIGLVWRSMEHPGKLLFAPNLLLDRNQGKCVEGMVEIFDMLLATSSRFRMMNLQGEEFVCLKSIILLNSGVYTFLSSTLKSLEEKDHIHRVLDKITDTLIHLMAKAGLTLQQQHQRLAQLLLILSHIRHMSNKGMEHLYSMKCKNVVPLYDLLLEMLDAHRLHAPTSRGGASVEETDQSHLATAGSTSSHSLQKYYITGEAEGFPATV
PROTOCOL: In-cell Western (ICW) ER degradation assay in T47D cells
Type: cell-based
MEASUREMENT SETUP: ER degradation, 16 hrs treatment

[Q] Jot down DC50 (ER in T47D cells (Homo sapiens (Human), UniProt P03372)) of O=C1CC[C@H](N2Cc3cc4c(cc3C2=O)OCC42CCN(C[C@@H]3COC4(CCN(c5ccc([C@H]6c7ccc(O)cc7CC[C@H]6c6ccccc6)cc5)CC4)C3)CC2)C(=O)N1 .
[A] < 1 nM

[Q] Jot down DC50 (ER in T47D cells (Homo sapiens (Human), UniProt P03372)) of O=C1CC[C@H](Nc2ccc(C3CCN(C[C@H]4COC5(CCN(c6ccc([C@H]7c8ccc(O)cc8CC[C@H]7c7ccccc7)cc6)CC5)C4)CC3)cc2)C(=O)N1 (single isomer, unassigned) .
[A] < 1 nM

[Q] Jot down DC50 (ER in T47D cells (Homo sapiens (Human), UniProt P03372)) of O=C1CC[C@H](N2Cc3cc4c(cc3C2=O)OC[C@@H]2CN(CC3CCC5(CC3)CN(c3ccc([C@@H]6c7ccc(O)cc7CC[C@@H]6c6ccccc6)cn3)C5)CCN42)C(=O)N1 .
[A] 10 to 100 nM

[Q] Jot down DC50 (ER in T47D cells (Homo sapiens (Human), UniProt P03372)) of O=C1CC[C@H](N2Cc3c(ccc4c3OC[C@H]3CN(C[C@H]5COC6(C5)CN(c5ccc([C@@H]7c8ccc(O)cc8CC[C@@H]7c7ccccc7)cc5)C6)CCN43)C2=O)C(=O)N1 (single isomer, unassigned) .
[A] < 1 nM

[Q] Jot down DC50 (ER in T47D cells (Homo sapiens (Human), UniProt P03372)) of O=C1CC[C@H](NC(=O)c2ccc3c(n2)OC[C@H]2CN(C[C@H]4COC5(CCN(c6ccc([C@H]7c8ccc(O)cc8CC[C@H]7c7ccccc7)cc6)CC5)C4)CCN32)C(=O)N1 (single isomer, unassigned) .
[A] 10 to 100 nM

[Q] Jot down DC50 (ER in T47D cells (Homo sapiens (Human), UniProt P03372)) of O=C1CC[C@H](Nc2ccc(C3CCN(C[C@@H]4COC5(CCN(c6ccc([C@H]7c8ccc(O)cc8CC[C@H]7c7ccccc7)cc6)CC5)C4)CC3)c(F)c2)C(=O)N1 (single isomer, unassigned) .
[A] > 100 nM

[Q] Jot down DC50 (ER in T47D cells (Homo sapiens (Human), UniProt P03372)) of COc1cc(N2CCC3(CC2)CC(CN2CCC(c4ccc(N[C@H]5CCC(=O)NC5=O)c(F)c4)CC2)C3)ccc1[C@@H]1c2ccc(O)cc2CC[C@@H]1c1ccccc1 (single isomer, unassigned) .
[A] < 1 nM

[Q] Jot down DC50 (ER in T47D cells (Homo sapiens (Human), UniProt P03372)) of COc1cc(C2c3ccc(O)cc3CCC2c2ccccc2)c(F)cc1N1CCC(CN2CCN3c4ccc5c(c4OC[C@H]3C2)CN([C@H]2CCC(=O)NC2=O)C5=O)CC1 (stereo in doubt) .
[A] 1 to 10 nM

[Q] Jot down DC50 (ER in T47D cells (Homo sapiens (Human), UniProt P03372)) of O=C1CC[C@H](N2Cc3c(ccc4c3OCC43CCN(CC4CC5(CCN(c6ccc([C@H]7c8ccc(O)cc8CC[C@H]7c7ccccc7)cc6F)CC5)C4)CC3)C2=O)C(=O)N1 .
[A] < 1 nM

[Q] Jot down DC50 (ER in T47D cells (Homo sapiens (Human), UniProt P03372)) of O=C1CCC(NC(=O)c2ccc(N3CCN(CC4CCN(c5ccc([C@@H]6c7ccc(O)cc7CC[C@@H]6c6ccccc6)cc5)CC4)CC3)cn2)C(=O)N1 (stereo partly drawn) .
[A] < 1 nM

[Q] Jot down DC50 (ER in T47D cells (Homo sapiens (Human), UniProt P03372)) of O=C1CC[C@H](N2Cc3c(ccc4c3OC[C@H]3CN(C[C@@H]5COC6(C5)CN(c5ccc([C@@H]7c8ccc(O)cc8CC[C@@H]7c7ccccc7)cc5)C6)CCN43)C2=O)C(=O)N1 (single isomer, unassigned) .
[A] < 1 nM

[Q] Jot down DC50 (ER in T47D cells (Homo sapiens (Human), UniProt P03372)) of COc1cc(N2CCC3(CC2)CC(CN2CCC(c4ccc(N[C@@H]5CCC(=O)NC5=O)cc4)CC2)C3)ccc1[C@@H]1c2ccc(O)cc2CC[C@@H]1c1ccccc1 (single isomer, unassigned) .
[A] < 1 nM

====

TESTED SYSTEM: ER in MCF-7 cells (Homo sapiens (Human))
PROTOCOL: In-cell Western (ICW) ER degradation assay in MCF-7 cells
Assay type: cell-based
MEASUREMENT SETUP: MCF7, MCF-7, maximal ER degradation, 16 hrs treatment; read-out: MCF7 Dmax
Where a name gives a salt, the structure may show the parent alone.
Give Dmax for every item shown.

[Q] Give Dmax for O=C1CC[C@H](NC(=O)c2ccc3c(n2)OC[C@H]2CN(C[C@H]4COC5(CCN(c6ccc([C@@H]7c8ccc(O)cc8CC[C@@H]7c7ccccc7)cc6)CC5)C4)CCN32)C(=O)N1 (single isomer, unassigned)
[A] 50 to 75%

[Q] Give Dmax for COc1cc(N2CCC(CN3CCC(c4ccc(N[C@@H]5CCC(=O)NC5=O)cc4F)CC3)CC2)ccc1[C@H]1c2ccc(O)cc2CC[C@H]1c1ccccc1 (stereo in doubt) [Compound A84, formate]
[A] < 25%

[Q] Give Dmax for COc1c([C@@H]2c3ccc(O)cc3CC[C@@H]2c2ccccc2)ccc(N2CCC(CN3CCN4c5cc6c(cc5OC[C@@H]4C3)C(=O)N([C@H]3CCC(=O)NC3=O)C6)CC2)c1F (single isomer, unassigned)
[A] > 75%

[Q] Give Dmax for O=C1CC[C@H](N2Cc3c(ccc4c3OC[C@H]3CN(CC5CC6(CCN(c7ccc([C@@H]8c9ccc(O)cc9CC[C@@H]8c8ccccc8)cn7)CC6)C5)CCN43)C2=O)C(=O)N1 (single isomer, unassigned)
[A] > 75%

[Q] Give Dmax for O=C1CC[C@H](Nc2ccc(C3CCN(C[C@H]4COC5(CCN(c6ccc([C@H]7c8ccc(O)cc8CC[C@H]7c7ccccc7)cc6)CC5)C4)CC3)cc2)C(=O)N1 (single isomer, unassigned)
[A] 50 to 75%

[Q] Give Dmax for COc1cc(N2CCC(CN3CCC(c4ccc(N[C@H]5CCC(=O)NC5=O)c(F)c4)CC3)CC2)c(F)cc1[C@@H]1c2ccc(O)cc2CC[C@@H]1c1ccccc1
[A] 25 to 50%

[Q] Give Dmax for COc1cc(N2CCC3(CC2)C[C@H](CN2CCN4c5cc6c(cc5OC[C@@H]4C2)C(=O)N([C@H]2CCC(=O)NC2=O)C6)CO3)c(F)cc1[C@@H]1c2ccc(O)cc2CC[C@@H]1c1ccccc1
[A] > 75%

[Q] Give Dmax for O=C1CC[C@H](N2Cc3c(ccc4c3OC[C@H]3CN(C[C@@H]5COC6(CCN(c7ccc([C@@H]8c9ccc(O)cc9CC[C@@H]8c8ccccc8)cn7)CC6)C5)CCN43)C2=O)C(=O)N1 (single isomer, unassigned)
[A] 50 to 75%

[Q] Give Dmax for COc1cc(N2CC3(CCC(CN4CCN5c6ccc7c(c6OC[C@H]5C4)CN([C@H]4CCC(=O)NC4=O)C7=O)CC3)C2)c(F)cc1[C@@H]1c2ccc(O)cc2CC[C@@H]1c1ccccc1 (single isomer, unassigned)
[A] > 75%

[Q] Give Dmax for COc1cc(N2CCC(CN3CCC(c4ccc(N[C@@H]5CCC(=O)NC5=O)cc4)CC3)CC2)ccc1[C@@H]1c2ccc(O)cc2CC[C@@H]1c1ccccc1 (single isomer, unassigned)
[A] 25 to 50%

// data source = patent US20260028354A1
